Numbers sourced from ChEMBL document CHEMBL3351435.

Provide the recorded pIC50 for the entries that follow.
target: Tubulin; assay: Inhibition of tubulin (unknown origin) polymerization incubated 15 mins prior to GTP addition by spectrophotometry; format: protein-complex assay, Homo sapiens
Quick note: pIC50 values are minus log10 of concentrations in mol/L.

INPUT: Name the recorded pIC50 for COc1cc(C(=O)c2ccn(-c3cccc(NC(=N)N)c3)c2)cc(OC)c1OC.Cl .
OUTPUT: 5.92

INPUT: Name the recorded pIC50 for COc1cc(C(=O)c2ccn(-c3cccc(N(C)C)c3)c2)cc(OC)c1OC .
OUTPUT: 5.82

INPUT: Name the recorded pIC50 for COc1cc(C(=O)c2ccn(-c3ccc(C)cc3)c2)cc(OC)c1OC .
OUTPUT: 6.05

INPUT: Name the recorded pIC50 for COc1cc(C(=O)c2ccn(-c3ccccc3N)c2)cc(OC)c1OC .
OUTPUT: 5.17

INPUT: Name the recorded pIC50 for CNc1cccc(-n2ccc(C(=O)c3cc(OC)c(OC)c(OC)c3)c2)c1 .
OUTPUT: 6.00

INPUT: Name the recorded pIC50 for COc1cc(C(=O)c2ccn(-c3ccc(Cl)cc3)c2)cc(OC)c1OC .
OUTPUT: 5.64

INPUT: Name the recorded pIC50 for COc1ccc(-n2ccc(C(=O)c3cc(OC)c(OC)c(OC)c3)c2)cc1OC(C)C .
OUTPUT: 5.77

INPUT: Name the recorded pIC50 for COc1cc(C(=O)c2ccn(-c3cccc(C)c3)c2)cc(OC)c1OC .
OUTPUT: 6.02

INPUT: Name the recorded pIC50 for COc1cc(C(=O)c2ccn(-c3ccccc3OC(C)C)c2)cc(OC)c1OC .
OUTPUT: 5.21

###

target: CYP1A2 (Homo sapiens); experiment: Inhibition of human CYP1A2 using furafylline as substrate at 1 uM; assay type: ADME; settings: probe furafylline
Sequence (P05177 whole entry): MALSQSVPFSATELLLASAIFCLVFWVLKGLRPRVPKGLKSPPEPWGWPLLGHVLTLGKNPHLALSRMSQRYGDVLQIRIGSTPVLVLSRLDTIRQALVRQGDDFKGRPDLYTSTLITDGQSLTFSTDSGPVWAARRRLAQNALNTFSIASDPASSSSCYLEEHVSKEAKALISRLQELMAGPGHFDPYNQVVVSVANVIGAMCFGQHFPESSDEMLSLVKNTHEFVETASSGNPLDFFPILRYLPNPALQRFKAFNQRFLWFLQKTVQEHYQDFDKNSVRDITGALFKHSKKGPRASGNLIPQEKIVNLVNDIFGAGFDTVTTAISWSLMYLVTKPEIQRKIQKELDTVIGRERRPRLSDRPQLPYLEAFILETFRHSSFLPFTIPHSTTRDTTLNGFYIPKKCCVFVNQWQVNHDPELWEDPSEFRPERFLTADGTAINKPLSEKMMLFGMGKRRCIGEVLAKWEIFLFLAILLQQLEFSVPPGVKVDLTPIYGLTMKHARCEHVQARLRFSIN
experimental endpoint: inhibition at 1 µM (%)
// return numeric value only (unit: %, not printed)

INPUT: Name the recorded inhibition at 1 µM for COc1cc(C(=O)c2ccn(-c3cccc(N)c3)c2)cc(OC)c1OC .
OUTPUT: 66.8

###

assay: Mean residence time in CD-1 mouse at 5 mg/kg, iv; assay type: ADME, organism-based; set-up: dose 5 mg/kg, route intravenous; conditions: in vivo
experimental endpoint: MRT (min)
// return numeric value only (unit: min, not printed)

INPUT: Name the recorded MRT for COc1cc(C(=O)c2ccn(-c3cccc(N)c3)c2)cc(OC)c1OC .
OUTPUT: 31

###

experiment: Cytotoxicity against human D283 cells; format: functional, cell-based
Provide the recorded pIC50 for the entries that follow.
Quick note: pIC50 values are minus log10 of concentrations in mol/L.

INPUT: Name the recorded pIC50 for COc1cc(C(=O)c2ccn(-c3cccc(N)c3)c2)cc(OC)c1OC .
OUTPUT: 6.24

INPUT: Name the recorded pIC50 for COc1cc(C(=O)c2ccn(-c3cccc(NC(=N)N)c3)c2)cc(OC)c1OC.Cl .
OUTPUT: 6.17

###

experiment: Cmax in CD-1 mouse at 15 mg/kg, po; assay type: ADME, organism-based; design: dose 15 mg/kg, route oral; settings: in vivo
experimental endpoint: Cmax (ng/mL)
// return numeric value only (unit: ng/mL, not printed)

INPUT: Name the recorded Cmax for COc1cc(C(=O)c2ccn(-c3cccc(N)c3)c2)cc(OC)c1OC .
OUTPUT: 1770

###

assay: Inhibition of hedgehog signaling in mouse NIH/3T3 Shh-Light II cells after 48 hrs by luciferase reporter gene assay; type: functional, cell-based
experimental endpoint: IC50 (nM)
// return numeric value only (unit: nM, not printed)

INPUT: Name the recorded IC50 for COc1cc(C(=O)c2ccn(-c3cccc(N)c3)c2)cc(OC)c1OC .
OUTPUT: 676

###

molecular target: Tubulin (Homo sapiens) (UniProt P68371+Q9H4B7+P0DPH7+P68366+Q13509+Q71U36+P04350+Q3ZCM7+P07437+P68363+Q9BQE3+Q6PEY2+Q13885+Q9BVA1+Q9BUF5); test: Displacement of [3H]colchicine from tubulin (unknown origin) at 5 uM after 10 mins; type: protein-complex assay
Provide the recorded inhibition for the entries that follow.
// return numeric value only (unit: %, not printed)

INPUT: Name the recorded inhibition for COc1cc(C(=O)c2ccn(-c3ccc(C)cc3)c2)cc(OC)c1OC .
OUTPUT: 95

INPUT: Name the recorded inhibition for COc1cc(C(=O)c2ccn(-c3cccc(C)c3)c2)cc(OC)c1OC .
OUTPUT: 79

INPUT: Name the recorded inhibition for COc1cc(C(=O)c2ccn(-c3ccccc3)c2)cc(OC)c1OC .
OUTPUT: 80

INPUT: Name the recorded inhibition for COc1cc(C(=O)c2ccn(-c3cccc(F)c3)c2)cc(OC)c1OC .
OUTPUT: 55

INPUT: Name the recorded inhibition for COc1ccc(-n2ccc(C(=O)c3cc(OC)c(OC)c(OC)c3)c2)cc1N .
OUTPUT: 89

INPUT: Name the recorded inhibition for COc1ccc(-n2ccc(C(=O)c3cc(OC)c(OC)c(OC)c3)c2)cc1OC .
OUTPUT: 56

INPUT: Name the recorded inhibition for COc1cc(C(=O)c2ccn(-c3cccc(NS(C)(=O)=O)c3)c2)cc(OC)c1OC .
OUTPUT: 84

INPUT: Name the recorded inhibition for COc1cc(C(=O)c2ccn(-c3ccccc3F)c2)cc(OC)c1OC .
OUTPUT: 77

###

experiment: Elimination half life in CD-1 mouse at 5 mg/kg, iv; assay type: ADME, organism-based; design: dose 5 mg/kg, route intravenous; settings: in vivo, read-out: beta t1/2
experimental endpoint: half-life (h)
// return numeric value only (unit: h, not printed)

INPUT: Name the recorded half-life for COc1cc(C(=O)c2ccn(-c3cccc(N)c3)c2)cc(OC)c1OC .
OUTPUT: 1.23

###

test: Cmax in CD-1 mouse at 5 mg/kg, iv; type: ADME, organism-based; set-up: dose 5 mg/kg, route intravenous; conditions: in vivo
experimental endpoint: Cmax (ng/mL)
// return numeric value only (unit: ng/mL, not printed)

INPUT: Name the recorded Cmax for COc1cc(C(=O)c2ccn(-c3cccc(N)c3)c2)cc(OC)c1OC .
OUTPUT: 3400

###

experiment: Cytotoxicity against human MESSA cells assessed as growth inhibition after 72 hrs by CellTitre-Glo assay; assay type: functional, cell-based; conditions: MES-SA
experimental endpoint: IC50 (nM)
// return numeric value only (unit: nM, not printed)

INPUT: Name the recorded IC50 for COc1cc(C(=O)c2ccn(-c3ccccc3)c2)cc(OC)c1OC .
OUTPUT: 56

INPUT: Name the recorded IC50 for COc1cccc(-n2ccc(C(=O)c3cc(OC)c(OC)c(OC)c3)c2)c1 .
OUTPUT: 262

INPUT: Name the recorded IC50 for CC[C@]1(O)C[C@@H]2CN(CCc3c([nH]c4ccccc34)[C@@](C(=O)OC)(c3cc4c(cc3OC)N(C)[C@H]3[C@@](O)(C(=O)OC)[C@H](OC(C)=O)[C@]5(CC)C=CCN6CC[C@]43[C@@H]65)C2)C1 .
OUTPUT: 3

INPUT: Name the recorded IC50 for COc1cc(C(=O)c2ccn(-c3cccc(NC(=N)N)c3)c2)cc(OC)c1OC.Cl .
OUTPUT: 14

INPUT: Name the recorded IC50 for COc1cc(C(=O)c2ccn(-c3cccc(N)c3)c2)cc(OC)c1OC .
OUTPUT: 1.8

INPUT: Name the recorded IC50 for COc1ccc(-n2ccc(C(=O)c3cc(OC)c(OC)c(OC)c3)c2)cc1 .
OUTPUT: 63

INPUT: Name the recorded IC50 for COc1ccccc1-n1ccc(C(=O)c2cc(OC)c(OC)c(OC)c2)c1 .
OUTPUT: 515

###

assay: Clearance in CD-1 mouse at 5 mg/kg, iv; type: ADME, organism-based; set-up: dose 5 mg/kg, route intravenous; conditions: in vivo
experimental endpoint: clearance (mL/min/kg)
// return numeric value only (unit: mL/min/kg, not printed)

INPUT: Name the recorded clearance for COc1cc(C(=O)c2ccn(-c3cccc(N)c3)c2)cc(OC)c1OC .
OUTPUT: 80.8

###

target: Tubulin (Homo sapiens) (UniProt P68371+Q9H4B7+P0DPH7+P68366+Q13509+Q71U36+P04350+Q3ZCM7+P07437+P68363+Q9BQE3+Q6PEY2+Q13885+Q9BVA1+Q9BUF5); experiment: Displacement of [3H]colchicine from tubulin (unknown origin) at 5 uM after 10 mins; assay type: protein-complex assay
experimental endpoint: inhibition (%)
// return numeric value only (unit: %, not printed)

INPUT: Name the recorded inhibition for COc1cc(C(=O)c2ccn(-c3cccc(N)c3)c2)cc(OC)c1OC .
OUTPUT: 86

INPUT: Name the recorded inhibition for COc1cccc(-n2ccc(C(=O)c3cc(OC)c(OC)c(OC)c3)c2)c1 .
OUTPUT: 66

INPUT: Name the recorded inhibition for COc1ccccc1-n1ccc(C(=O)c2cc(OC)c(OC)c(OC)c2)c1 .
OUTPUT: 50

INPUT: Name the recorded inhibition for COc1cc(C(=O)c2ccn(-c3cccc(N4CCCC4)c3)c2)cc(OC)c1OC .
OUTPUT: 23

INPUT: Name the recorded inhibition for COc1ccc(-n2ccc(C(=O)c3cc(OC)c(OC)c(OC)c3)c2)cc1O .
OUTPUT: 79

INPUT: Name the recorded inhibition for COc1cc(C(=O)c2ccn(-c3cccc(-n4cccc4)c3)c2)cc(OC)c1OC .
OUTPUT: 27

INPUT: Name the recorded inhibition for COc1cc(C(=O)c2ccn(-c3ccc(Cl)cc3)c2)cc(OC)c1OC .
OUTPUT: 73

INPUT: Name the recorded inhibition for CNc1cccc(-n2ccc(C(=O)c3cc(OC)c(OC)c(OC)c3)c2)c1 .
OUTPUT: 92

INPUT: Name the recorded inhibition for COc1cc(C(=O)c2ccn(-c3cccc(OC(C)C)c3)c2)cc(OC)c1OC .
OUTPUT: 17

INPUT: Name the recorded inhibition for COc1ccc(-n2ccc(C(=O)c3cc(OC)c(OC)c(OC)c3)c2)cc1OC(C)C .
OUTPUT: 48
